System: Escherichia coli TOP10
Experiment: shrunken log2 fold change of peptide-encoding DNA abundance (4.5 h post-induction vs induction); higher = less antimicrobial activity (less host growth inhibition)
Settings: time post-induction: 4.5 h; library: site-saturation at positions 5, 18, 19, 20
Task for the reader: assign each of the following sequences its reported shrunken log2 fold change.
Numbers only.

As a guide, the following entries are already answered.
# inputSequence, reportedProperty, endpointValue
rows = [
    ("RRIRKRPPRLPRPRPRPLVDPRP", "shrunken log2 fold change", 0.218),
    ("RRIRERPPRLPRPRPRPKQRPRP", "shrunken log2 fold change", 0.235),
    ("RRIRCRPPRLPRPRPRPHSTPRP", "shrunken log2 fold change", -0.698),
    ("RRIRERPPRLPRPRPRPASWPRP", "shrunken log2 fold change", 0.0747),
    ("RRIRQRPPRLPRPRPRPSCLPRP", "shrunken log2 fold change", -0.0903),
]

Provide shrunken log2 fold change values for the following items, in order.
1. RRIRFRPPRLPRPRPRPPRFPRP
2. RRIRARPPRLPRPRPRPALVPRP
3. RRIRYRPPRLPRPRPRPPHRPRP
4. RRIRQRPPRLPRPRPRPWMHPRP
5. RRIRRRPPRLPRPRPRPRIIPRP
6. RRIRGRPPRLPRPRPRPNDCPRP
7. RRIRYRPPRLPRPRPRPETDPRP

[0.454, 0.597, -0.0877, 0.0573, 0.0728, -0.04, -0.021]

---

Assign shrunken log2 fold change to each entry below.
Test system: Escherichia coli TOP10;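 also: peptides expressed intracellularly from a pBAD plasmid library in pooled LB shake-flask culture, induced with 0.3% L-arabinose, DNA abundance read by NGS, three biological replicates, DESeq2 with apeglm shrinkage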
Test: shrunken log2 fold change of peptide-encoding DNA abundance (4.5 h post-induction vs induction); higher = less antimicrobial activity (less host growth inhibition)
Settings: time post-induction: 4.5 h; library: site-saturation at positions 5, 18, 19, 20

# inputSequence, reportedProperty, endpointValue
data = [
    ("RRIRNRPPRLPRPRPRPSVTPRP", "shrunken log2 fold change", 0.0789),
    ("RRIRHRPPRLPRPRPRPWVEPRP", "shrunken log2 fold change", -0.0959),
    ("RRIRYRPPRLPRPRPRPNACPRP", "shrunken log2 fold change", -0.047),
    ("RRIRPRPPRLPRPRPRPVMTPRP", "shrunken log2 fold change", -0.0299),
]

Provide shrunken log2 fold change values for the following items, in order.
1. RRIRLRPPRLPRPRPRPVCVPRP
2. RRIRNRPPRLPRPRPRPCESPRP
3. RRIRRRPPRLPRPRPRPDLGPRP
4. RRIRCRPPRLPRPRPRPERVPRP
5. RRIRLRPPRLPRPRPRPFFIPRP
6. RRIRTRPPRLPRPRPRPNNCPRP
7. RRIRMRPPRLPRPRPRPTQLPRP

1: -0.115; 2: -0.00141; 3: 0.104; 4: 0.361; 5: -0.396; 6: -0.0675; 7: 0.668

Batch request: shrunken log2 fold change per item, same order as input.
1. RRIRCRPPRLPRPRPRPCLFPRP
2. RRIRLRPPRLPRPRPRPNIKPRP
3. RRIRERPPRLPRPRPRPKEQPRP
4. RRIRIRPPRLPRPRPRPPPNPRP

1: -0.333; 2: -0.321; 3: 0.0401; 4: 0.776
